All figures here come from patent US20230242662A1.

# measurement.target: human CD46 expressed on 293 cells (human) (UniProt P15529)
# experiment.summary: FACS, 293 cells expressing human CD46, pH 6.0
metric: EC50 (µg/mL)
Your answer should be a plain number; it is taken to be in µg/mL.

>>> value_measured("BA-133-04-01 (antibody, V domains shown) VH: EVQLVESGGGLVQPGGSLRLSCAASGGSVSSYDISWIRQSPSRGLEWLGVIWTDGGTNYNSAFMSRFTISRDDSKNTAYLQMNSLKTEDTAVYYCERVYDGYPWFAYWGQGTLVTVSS VL: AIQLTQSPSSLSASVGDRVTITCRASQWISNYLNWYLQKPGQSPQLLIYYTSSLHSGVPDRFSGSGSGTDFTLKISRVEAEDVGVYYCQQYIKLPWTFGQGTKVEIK")
0.324
>>> value_measured("BAP133-2-03-03-SL (antibody, V domains shown) VH: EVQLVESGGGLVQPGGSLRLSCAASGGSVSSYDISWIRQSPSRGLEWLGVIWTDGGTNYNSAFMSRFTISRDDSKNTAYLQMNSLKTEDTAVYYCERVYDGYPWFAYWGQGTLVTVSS VL: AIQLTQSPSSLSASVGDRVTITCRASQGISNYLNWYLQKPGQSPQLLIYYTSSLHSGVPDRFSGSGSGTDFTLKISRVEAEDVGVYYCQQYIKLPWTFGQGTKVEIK")
0.336
>>> value_measured("BA-133-04-03 (antibody, V domains shown) VH: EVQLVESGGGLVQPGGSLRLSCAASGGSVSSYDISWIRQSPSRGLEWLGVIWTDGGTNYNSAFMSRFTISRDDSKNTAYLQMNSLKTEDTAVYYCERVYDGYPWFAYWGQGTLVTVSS VL: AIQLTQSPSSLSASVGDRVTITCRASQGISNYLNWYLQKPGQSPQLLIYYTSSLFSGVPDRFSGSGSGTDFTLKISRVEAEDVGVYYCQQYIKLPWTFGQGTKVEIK")
0.147

Lab note: next binder to report on.
Ask | Tell me measured EC50 for BA-133-04-04 (antibody, V domains shown) VH: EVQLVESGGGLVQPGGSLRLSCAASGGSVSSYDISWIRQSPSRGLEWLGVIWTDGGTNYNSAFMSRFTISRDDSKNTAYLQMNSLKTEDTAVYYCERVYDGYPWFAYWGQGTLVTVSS VL: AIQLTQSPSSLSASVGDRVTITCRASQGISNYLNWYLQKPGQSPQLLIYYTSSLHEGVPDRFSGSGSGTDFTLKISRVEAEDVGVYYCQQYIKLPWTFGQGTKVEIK please.
Reply | 0.241
